- systemUnderTest: hPDE10A2 (Homo sapiens, UniProt Q9Y233)
- Sequence (Q9Y233 267-1055): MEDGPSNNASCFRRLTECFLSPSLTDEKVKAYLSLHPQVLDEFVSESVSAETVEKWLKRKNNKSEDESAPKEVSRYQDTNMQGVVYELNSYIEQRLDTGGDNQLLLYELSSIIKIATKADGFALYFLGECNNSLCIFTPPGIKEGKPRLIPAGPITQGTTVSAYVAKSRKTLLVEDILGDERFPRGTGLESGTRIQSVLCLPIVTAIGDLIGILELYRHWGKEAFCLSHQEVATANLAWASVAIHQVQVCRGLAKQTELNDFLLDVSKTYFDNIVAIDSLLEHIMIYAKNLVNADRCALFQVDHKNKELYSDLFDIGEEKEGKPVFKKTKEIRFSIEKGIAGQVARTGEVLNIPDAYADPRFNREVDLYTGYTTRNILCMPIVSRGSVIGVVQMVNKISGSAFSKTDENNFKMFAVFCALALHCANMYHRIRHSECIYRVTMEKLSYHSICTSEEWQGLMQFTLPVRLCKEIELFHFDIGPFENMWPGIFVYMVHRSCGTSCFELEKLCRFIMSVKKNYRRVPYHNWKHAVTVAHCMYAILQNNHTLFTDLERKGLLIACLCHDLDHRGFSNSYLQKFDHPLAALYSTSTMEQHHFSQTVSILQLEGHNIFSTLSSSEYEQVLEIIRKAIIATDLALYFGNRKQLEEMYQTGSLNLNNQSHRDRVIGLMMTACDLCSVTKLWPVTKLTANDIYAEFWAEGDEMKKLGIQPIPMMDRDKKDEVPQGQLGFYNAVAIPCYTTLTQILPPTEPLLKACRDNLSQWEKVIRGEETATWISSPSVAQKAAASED
- assaySummary: biochemical
- conditionContext: 60 nM cAMP substrate; read-out: hPDE10A2 pIC50 (converted)
endpointLabel: IC50 (nM)
One number for each entry, in nM.

Recorded results for 3 compounds are shown here.
[
  {
    "compound": "COc1cccc2c(N3CC[C@@H](C)[C@H](c4cc(C(F)F)nc5ncnn45)C3)nccc12.Cl [Compound 10]",
    "IC50 / nM": 490
  },
  {
    "compound": "C[C@@H]1CCN(c2cc(I)ccn2)C[C@H]1c1cc(C(F)F)nc2ncnn12 [Compound 16]",
    "IC50 / nM": 224
  },
  {
    "compound": "C[C@@H]1CCN(c2nccc3[nH]ccc23)C[C@H]1c1cc(C(F)F)nc2ncnn12 [Compound 9]",
    "IC50 / nM": 708
  }
]

Lab note: next compound to report on.
Data request: Query (compound): COc1ccnc(N2CC[C@@H](C)[C@H](c3cc(C(F)F)nc4ncnn34)C2)c1OC.Cl [Compound 33] ; field requested: IC50
Data returned: 1700

FYI, the data here is from patent US11053248B2.
